Target: DRB1*0404 (Homo sapiens, UniProt P01903+P01911, A100R/A169T/F76Y/I96L/K127E/L162R/M171V/N62H/P40V/Q125Y/R42H/S133A/S149N/S66Y/V209L/W38E)
Assay: biochemical
Assay readout: pIC50
pIC50 field: float, defined as -log10 of concentration (mol/L).

State the recorded pIC50 for this entry: `CC(C)C[C@H](NC(=O)[C@H](CCCNC(=N)N)NC(=O)[C@H](Cc1c[nH]cn1)NC(=O)[C@H](CC(=O)O)NC(=O)[C@H](CS)NC(=O)[C@H](CC(C)C)NC(=O)[C@H](CCC(N)=O)NC(=O)[C@@H](NC(=O)[C@H](Cc1ccc(O)cc1)NC(=O)[C@@H](NC(=O)[C@H](CCC(=O)O)NC(=O)[C@H](CCCNC(=N)N)NC(=O)[C@H](CC(C)C)NC(=O)[C@H](CCCCN)NC(=O)[C@@H](N)CC(C)C)C(C)C)[C@@H](C)O)C(=O)O` 6.34

Returns the measured pIC50 for the input compound. Input: `CC(C)C[C@H](NC(=O)[C@H](C)NC(=O)[C@H](CCC(=O)O)NC(=O)[C@H](Cc1ccccc1)NC(=O)[C@H](CCC(=O)O)NC(=O)[C@H](CC(C)C)NC(=O)[C@H](Cc1ccc(O)cc1)NC(=O)[C@H](CCCNC(=N)N)NC(=O)[C@H](C)NC(=O)CNC(=O)[C@H](CC(C)C)NC(=O)[C@@H](N)Cc1c[nH]c2ccccc12)C(=O)NCC(=O)N[C@@H](Cc1ccccc1)C(=O)N[C@@H](CC(C)C)C(=O)N[C@@H](CC(N)=O)C(=O)N[C@@H](CCC(=O)O)C(=O)O` 6.91

----------
Biological target: DRB1*0404 (Homo sapiens, UniProt P01903+P01911, A100R/A169T/F76Y/I96L/K127E/L162R/M171V/N62H/P40V/Q125Y/R42H/S133A/S149N/S66Y/V209L/W38E)
Assay: biochemical
Assay readout: pIC50
Keep in mind that pIC50 stands for -log10 of concentration in molar terms.

1. CC[C@H](C)[C@H](NC(=O)[C@H](Cc1ccc(O)cc1)NC(=O)CNC(=O)[C@H](CC(C)C)NC(=O)[C@H](CCCCN)NC(=O)[C@H](Cc1c[nH]cn1)NC(=O)[C@H](CC(C)C)NC(=O)CNC(=O)[C@H](CCC(=O)O)NC(=O)CNC(=O)[C@H](CCC(=O)O)NC(=O)[C@@H](NC(=O)CNC(=O)[C@H](CO)NC(=O)[C@H](Cc1ccc(O)cc1)NC(=O)[C@H](CO)NC(=O)[C@@H](N)CC(N)=O)C(C)C)C(=O)O
5.36

We next turn to a different compound, shown below.
Find the recorded pIC50 belonging to `CC[C@H](C)[C@H](NC(=O)[C@H](C)NC(=O)[C@H](C)NC(=O)[C@H](C)NC(=O)[C@@H](N)CCC(=O)O)C(=O)N[C@@H](Cc1ccccc1)C(=O)N[C@@H](CCSC)C(=O)N[C@H](C(=O)N[C@@H](C)C(=O)N[C@H](C(=O)N1CCC[C@H]1C(=O)N1CCC[C@H]1C(=O)NCC(=O)N[C@H](C(=O)N[C@@H](C)C(=O)O)[C@@H](C)O)[C@@H](C)O)[C@@H](C)O` and report it. 6.46

----------
Molecular target: DRB1*0401 (Homo sapiens, UniProt P01903+P01911, A100K/A169T/F76Y/I96L/K127E/L162R/M171V/N62H/P40V/Q125Y/R42H/S133A/S149N/S66Y/V115G/V209L/W38E)
Experiment: biochemical
Lab note: compare IC50 with 300 nM, writing Criterion met if less and Criterion not met if equal or more.

Known results for compounds:
1) CC(C)C[C@H](NC(=O)[C@H](CCC(=O)O)NC(=O)[C@H](CCCCN)NC(=O)[C@@H](N)CCCNC(=N)N)C(=O)N[C@@H](CC(C)C)C(=O)N[C@H](C(=O)N[C@H](C(=O)N[C@@H](Cc1ccccc1)C(=O)N[C@@H](CCCCN)C(=O)N[C@@H](CC(N)=O)C(=O)N[C@@H](C)C(=O)N[C@@H](Cc1c[nH]cn1)C(=O)N[C@@H](C)C(=O)N[C@@H](CCCCN)C(=O)N[C@@H](CCCCN)C(=O)O)[C@@H](C)O)C(C)C [Envelope 231-245]
Criterion met
2) CSCC[C@H](NC(=O)[C@H](CC(C)C)NC(=O)[C@H](CCCNC(=N)N)NC(=O)[C@H](Cc1c[nH]cn1)NC(=O)[C@H](CC(=O)O)NC(=O)[C@H](CS)NC(=O)[C@H](CC(C)C)NC(=O)[C@H](CCC(N)=O)NC(=O)[C@@H](NC(=O)[C@H](Cc1ccc(O)cc1)NC(=O)[C@@H](NC(=O)[C@@H](N)CCC(=O)O)C(C)C)[C@@H](C)O)C(=O)N[C@@H](CO)C(=O)N[C@@H](C)C(=O)N[C@@H](C)C(=O)O [NS1 173-187]
Criterion not met
3) CC[C@H](C)[C@H](NC(=O)[C@H](Cc1ccc(O)cc1)NC(=O)CNC(=O)[C@H](CC(C)C)NC(=O)[C@H](CCCCN)NC(=O)[C@H](Cc1c[nH]cn1)NC(=O)[C@H](CC(C)C)NC(=O)CNC(=O)[C@H](CCC(=O)O)NC(=O)CNC(=O)[C@H](CCC(=O)O)NC(=O)[C@@H](NC(=O)CNC(=O)[C@H](CO)NC(=O)[C@H](Cc1ccc(O)cc1)NC(=O)[C@H](CO)NC(=O)[C@@H](N)CC(N)=O)C(C)C)C(=O)O [NS5 501-517]
Criterion met
4) CC[C@H](C)[C@H](NC(=O)[C@H](CC(C)C)NC(=O)[C@H](CCCNC(=N)N)NC(=O)CNC(=O)[C@@H](N)CC(N)=O)C(=O)N[C@H](C(=O)N[C@@H](C)C(=O)N[C@@H](CC(N)=O)C(=O)N1CCC[C@H]1C(=O)N[C@H](C(=O)N[C@H](C(=O)N[C@H](C(=O)N[C@@H](CCCCN)C(=O)N[C@@H](CCCCN)C(=O)N[C@@H](CCC(=O)O)C(=O)O)[C@@H](C)O)C(C)C)C(C)C)[C@@H](C)O [Envelope 346-360]
Criterion not met
5) CC[C@H](C)[C@H](NC(=O)[C@H](C)NC(=O)[C@H](C)NC(=O)[C@H](C)NC(=O)[C@@H](N)CCC(=O)O)C(=O)N[C@@H](Cc1ccccc1)C(=O)N[C@@H](CCSC)C(=O)N[C@H](C(=O)N[C@@H](C)C(=O)N[C@H](C(=O)N1CCC[C@H]1C(=O)N1CCC[C@H]1C(=O)NCC(=O)N[C@H](C(=O)N[C@@H](C)C(=O)O)[C@@H](C)O)[C@@H](C)O)[C@@H](C)O [NS3 309-323]
Criterion met
6) CC(C)C[C@H](NC(=O)[C@H](C)NC(=O)[C@H](CC(C)C)NC(=O)[C@@H]1CCCN1)C(=O)N[C@@H](CCCCN)C(=O)N[C@@H](CCC(=O)O)C(=O)N[C@@H](Cc1ccccc1)C(=O)N[C@@H](CCCCN)C(=O)N[C@@H](CC(=O)O)C(=O)N[C@@H](Cc1ccccc1)C(=O)N[C@@H](C)C(=O)N[C@@H](C)C(=O)NCC(=O)N[C@@H](CCCNC(=N)N)C(=O)N[C@@H](CCCCN)C(=O)O [NS3 605-619]
Criterion not met

Determine whether this compound shows IC50 lower than 300 nM (ties excluded): CSCC[C@H](NC(=O)CNC(=O)[C@H](CCCCN)NC(=O)[C@H](CC(C)C)NC(=O)[C@H](CCC(=O)O)NC(=O)[C@H](CC(C)C)NC(=O)[C@H](CCCCN)NC(=O)[C@H](CC(=O)O)NC(=O)[C@H](CCSC)NC(=O)[C@H](CCCCN)NC(=O)[C@H](CC(C)C)NC(=O)[C@H](CCCNC(=N)N)NC(=O)[C@H](CS)NC(=O)[C@H](CCCCN)NC(=O)[C@@H](N)CC(C)C)C(=O)O [Envelope 281-295] Criterion not met

is_below(IC50, 300 nM) for CC(C)C[C@H](NC(=O)[C@H](CCCNC(=N)N)NC(=O)[C@H](Cc1c[nH]cn1)NC(=O)[C@H](CC(=O)O)NC(=O)[C@H](CS)NC(=O)[C@H](CC(C)C)NC(=O)[C@H](CCC(N)=O)NC(=O)[C@@H](NC(=O)[C@H](Cc1ccc(O)cc1)NC(=O)[C@@H](NC(=O)[C@H](CCC(=O)O)NC(=O)[C@H](CCCNC(=N)N)NC(=O)[C@H](CC(C)C)NC(=O)[C@H](CCCCN)NC(=O)[C@@H](N)CC(C)C)C(C)C)[C@@H](C)O)C(=O)O [NS1 169-183] ? Criterion not met

Values were extracted from paper PMC3794980.
